pKd overview
# system: UniProt:P42226
# methodSummary: Surface plasmon resonance assay
# conditionSummary: truncated human STAT6 aa122-658, 25° C.; read-out: STAT6 SPR Kd
# Sequence (P42226 122-658): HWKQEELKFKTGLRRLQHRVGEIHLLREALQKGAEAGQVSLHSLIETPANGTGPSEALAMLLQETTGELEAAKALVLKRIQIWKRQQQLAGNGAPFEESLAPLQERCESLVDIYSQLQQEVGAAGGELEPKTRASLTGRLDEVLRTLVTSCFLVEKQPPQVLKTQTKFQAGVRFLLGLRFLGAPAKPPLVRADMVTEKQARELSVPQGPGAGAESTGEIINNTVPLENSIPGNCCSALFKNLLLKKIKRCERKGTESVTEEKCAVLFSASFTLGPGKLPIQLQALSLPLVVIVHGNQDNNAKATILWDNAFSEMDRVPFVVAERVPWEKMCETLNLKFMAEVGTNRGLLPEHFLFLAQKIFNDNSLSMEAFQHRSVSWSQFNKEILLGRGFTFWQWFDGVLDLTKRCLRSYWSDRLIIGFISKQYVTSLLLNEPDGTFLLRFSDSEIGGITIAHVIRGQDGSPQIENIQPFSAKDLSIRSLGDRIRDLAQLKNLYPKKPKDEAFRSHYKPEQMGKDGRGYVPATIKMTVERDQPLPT
Entry type: numeric. Quantity: pKd, the -log10 of concentration in molar units.

Worked examples follow.
compound="Cn1c(CN2CCC(c3ccc(-c4nnc5ccc(N6CCC(CN7CCN(Cc8ccc9c(c8)n(C)c(=O)n9C8CCC(=O)NC8=O)CC7)CC6)nn45)cc3)CC2)cc2c(-c3ccc(N)nc3)ccnc21 (stereo not drawn)" outcomemeasure=pKd reportedmeasurement=7.42
compound="Cn1c(CN2CCC(c3ccc(C(=O)N4CCC(CN5CCN(Cc6ccc7c(c6)n(C6CC6)c(=O)n7C6CCC(=O)NC6=O)CC5)CC4)cc3)CC2)cc2c(-c3ccc(N)nc3)ccnc21 (stereo not drawn)" outcomemeasure=pKd reportedmeasurement=6.98

Consider the record given below.
Reported pKd of CN(C(=O)c1ccc(C2CCN(Cc3cc4c(-c5ccc(N)nc5)ccnc4n3C)CC2)cc1)c1ccc(C2CCN(Cc3ccc4c(c3)n(C)c(=O)n4C3CCC(=O)NC3=O)CC2)cc1 (stereo not drawn) : 7.94

###

DC50 overview
# system: STAT6 (Homo sapiens (Human), UniProt P42226)
# methodSummary: STAT6 degrader assay (HiBiT, HeLa LgBiT clone 4.14)
# Assay type: cell-based
# conditionSummary: HeLa LgBiT clone 4.14, 4-24 h; geometric mean; given for compounds with >80% Emax; read-out: STAT6 degradation DC50
# Sequence (P42226 whole entry): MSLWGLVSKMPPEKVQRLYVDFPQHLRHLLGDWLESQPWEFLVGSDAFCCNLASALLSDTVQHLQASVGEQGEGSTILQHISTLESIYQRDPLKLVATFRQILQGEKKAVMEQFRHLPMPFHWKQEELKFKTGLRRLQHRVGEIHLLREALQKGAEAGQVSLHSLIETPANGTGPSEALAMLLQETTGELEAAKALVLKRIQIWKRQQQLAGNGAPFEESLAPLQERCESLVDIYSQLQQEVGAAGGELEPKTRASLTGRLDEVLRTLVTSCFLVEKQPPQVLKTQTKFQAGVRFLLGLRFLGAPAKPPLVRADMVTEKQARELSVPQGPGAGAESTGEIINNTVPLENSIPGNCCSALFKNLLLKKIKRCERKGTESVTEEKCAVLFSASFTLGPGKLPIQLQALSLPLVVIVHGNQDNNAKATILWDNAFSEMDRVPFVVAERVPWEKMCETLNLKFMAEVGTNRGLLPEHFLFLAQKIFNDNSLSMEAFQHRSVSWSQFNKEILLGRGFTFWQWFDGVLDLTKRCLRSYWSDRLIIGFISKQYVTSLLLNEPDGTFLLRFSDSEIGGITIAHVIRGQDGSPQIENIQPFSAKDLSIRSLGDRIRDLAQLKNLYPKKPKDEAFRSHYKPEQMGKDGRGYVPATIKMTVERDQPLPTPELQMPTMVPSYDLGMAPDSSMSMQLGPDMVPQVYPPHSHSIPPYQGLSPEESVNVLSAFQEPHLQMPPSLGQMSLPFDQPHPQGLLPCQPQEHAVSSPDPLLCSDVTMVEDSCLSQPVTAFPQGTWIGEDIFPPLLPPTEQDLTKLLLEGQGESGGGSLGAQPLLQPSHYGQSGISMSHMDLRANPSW
Give just the number in nM; leave the unit off.

compound="CNc1ccc(-c2ccnc3c2cc([C@H](C)N2CCC(c4ccc(C(=O)N5CCC(CN6CCN(Cc7ccc8c(c7)n(C7CC7)c(=O)n8[C@H]7CCC(=O)NC7=O)C[C@@H]6C)CC5)cc4)CC2)n3C)cn1 (single isomer, unassigned)" reportedmeasurement=1.4

Reported DC50 of CNc1ccc(-c2ccnc3c2cc([C@H](C)N2CCC(c4ccc(C(=O)N5CCC(CN6CCN(Cc7ccc8c(c7)n(C7CC7)c(=O)n8C7CCC(=O)NC7=O)C[C@@H]6C)CC5)cc4)CC2)n3C)cn1 (some centres unmarked) : 1.9

###

pEC50 overview
# System: eotaxin-3 release
# methodSummary: Human whole blood eotaxin-3 assay (IL-4 stimulated)
# Format: cell-based
# conditionSummary: human whole blood, IL-4 0.4 nM, 48 hours; geometric mean; given for compounds with >80% Emax; read-out: Eotaxin-3 EC50
Entry type: numeric. Quantity: pEC50, the -log10 of concentration in molar units.

compound="C[C@@H](c1cc2c(-c3ccc(N)nc3)ccnc2n1C)N1CCC(c2ccc(C(=O)N3CCC(CC4CCN(c5ccc6c(c5)C5(CC5)C(=O)N6C5CCC(=O)NC5=O)CC4)CC3)cc2)CC1 (some centres unmarked)" outcomemeasure=pEC50 reportedmeasurement=7.63

Reported pEC50 of C[C@@H](c1cc2c(-c3ccc(N)nc3)ccnc2n1C)N1CCC(c2ccc(C(=O)N3CCC(F)(CN4CCN(Cc5ccc6c(c5)n(C)c(=O)n6C5CCC(=O)NC5=O)CC4)CC3)cc2)CC1 (some centres unmarked) : 8.11

Reported pEC50 of C[C@H]1CN(Cc2cc3c(cc2F)n([C@H]2CCC(=O)NC2=O)c(=O)n3C)CCN1CC1CCN(C(=O)c2ccc(C3CCN([C@@H](C)c4cc5c(-c6ccc(N)nc6)ccnc5n4C)CC3)cc2)CC1 (single isomer, unassigned) : 8.92

Reported pEC50 of C[C@H]1CN(Cc2ccc3c(c2)n(C)c(=O)n3C2CCC(=O)NC2=O)CCN1CC1CCN(C(=O)c2ccc(C3CCN([C@@H](C)c4cc5c(-c6ncc(N)cc6F)ccnc5n4C)CC3)cc2)CC1 (some centres unmarked) : 8.11

Reported pEC50 of C[C@H]1CN(Cc2ccc3c(c2)n(C)c(=O)n3C2CCC(=O)NC2=O)CCN1CC1CCN(C(=O)c2ccc(C3CCN([C@@H](C)c4cc5c(-c6ccc(N)nc6C#N)ccnc5n4C)CC3)cc2)CC1 (some centres unmarked) : 8.82

###

# Test system: eotaxin-3 release
# methodSummary: Human whole blood eotaxin-3 assay (IL-4 stimulated)
# Format: cell-based
# conditionSummary: human whole blood, IL-4 0.4 nM, 48 hours; geometric mean; given for compounds with >80% Emax; read-out: Eotaxin-3 EC50
# Description: Human Whole Blood Eotaxin-3 Assay This was a human whole blood assay using recombinant human Interleukin 4 to stimulate the blood and measuring the ability of the test compounds to inhibit eotaxin-3 release. Compounds or media were added to the wells and incubated together with human whole blood for 120 minutes at 37° C. Subsequently, recombinant IL-4 was added at a final concentration of 0.4 nM. The plates were incubated for 48 hours. […]
outcomeMeasure: EC50 (nM)
Give just the number in nM; leave the unit off.

Worked examples follow.
compound="C[C@@H](c1cc2c(-c3ccc(N)nc3)ccnc2n1C)N1CCC(c2ccc(C(=O)N3CCC(CN4CCN(Cc5ccc6c(c5)n(CC5CC5)c(=O)n6C5CCC(=O)NC5=O)CC4)CC3)cc2)CC1 (stereo partly drawn)" outcomemeasure=EC50 reportedmeasurement=7.5
compound="C[C@H]1CN(Cc2cc3c(cc2F)N(C2CCC(=O)NC2=O)C(=O)C3(C)C)CCN1CC1CCN(C(=O)c2ccc(C3CCN([C@@H](C)c4cc5c(-c6ccc(N)nc6)ccnc5n4C)CC3)cc2)CC1 (stereo partly drawn)" outcomemeasure=EC50 reportedmeasurement=31.7

Note to self: EC50 of CNc1ccc(-c2ccnc3c2cc([C@H](C)N2CC=C(c4c(C)cc(C(=O)N5CCC(CN6CCN(c7cc8c(cc7F)n(C7CCC(=O)NC7=O)c(=O)n8C)CC6)CC5)cc4F)CC2)n3C)cn1 (stereo partly drawn) with eotaxin-3 release was 6.7

Note to self: EC50 of CN(C(=O)c1ccc(C2CCN(Cc3cc4c(-c5ccc(N)nc5)ccnc4n3C)CC2)cc1)c1ccc(C2CCN(Cc3ccc4c(c3)n(C)c(=O)n4C3CCC(=O)NC3=O)CC2)cc1 (stereo not drawn) with eotaxin-3 release was 1

Note to self: EC50 of CNc1ccc(-c2ccnc3c2cc([C@H](C)N2CC=C(c4c(C)cc(C(=O)N5CCC(CN6CCN(Cc7ccc8c(c7)C(C)(C)C(=O)N8C7CCC(=O)NC7=O)C[C@@H]6C)CC5)cc4F)CC2)n3C)cn1 (stereo partly drawn) with eotaxin-3 release was 12.3

###

# Tested on: eotaxin-3 release
# methodSummary: Human whole blood eotaxin-3 assay (IL-4 stimulated)
# Format: cell-based
# conditionSummary: human whole blood, IL-4 0.4 nM, 48 hours; geometric mean; given for compounds with >80% Emax; read-out: Eotaxin-3 EC50
pEC50 overview
Entry type: numeric. Quantity: pEC50, the -log10 of concentration in molar units.

Worked examples follow.
compound="C[C@H]1CN(c2ccc3c(c2)C2(CC2)C(=O)N3C2CCC(=O)NC2=O)CCN1CC1CCN(C(=O)c2ccc(C3CCN([C@@H](C)c4cc5c(-c6ccc(N)nc6)ccnc5n4C)CC3)cc2)CC1 (stereo partly drawn)" reportedmeasurement=6.64
compound="CNc1ccc(-c2ccnc3c2cc([C@H](C)N2CC=C(c4c(C)cc(C(=O)N5CCC(CN6CCN(Cc7cc8c(cc7F)N(C7CCC(=O)NC7=O)C(=O)C87CC7)CC6)CC5)cc4F)CC2)n3C)cn1 (stereo partly drawn)" reportedmeasurement=8.07

Reported pEC50 of COc1nc(N)ccc1-c1ccnc2c1cc([C@H](C)N1CCC(c3ccc(C(=O)N4CCC(CN5CCN(Cc6ccc7c(c6)n(C)c(=O)n7C6CCC(=O)NC6=O)C[C@@H]5C)CC4)cc3)CC1)n2C (stereo partly drawn) : 9.10

###

# system: STAT6 (Homo sapiens (Human), UniProt P42226)
# methodSummary: STAT6 degrader assay (HiBiT, HeLa LgBiT clone 4.14)
# Assay type: cell-based
# conditionSummary: HeLa LgBiT clone 4.14, 4-24 h; geometric mean; given for compounds with >80% Emax; read-out: STAT6 degradation DC50
outcomeMeasure: DC50 (nM)
Give just the number in nM; leave the unit off.

Reported DC50 of Cn1c(CN2CCC(c3ccc(C(=O)N4CCC(OCC#Cc5ccc6c(c5)n(C)c(=O)n6C5CCC(=O)NC5=O)CC4)cc3)CC2)cc2c(-c3ccc4[nH]ncc4c3)ccnc21 (stereo not shown) : 2.4

Reported DC50 of C[C@H]1CN(Cc2ccc3c(c2)n(C)c(=O)n3C2CCC(=O)NC2=O)CCN1CC1CCN(C(=O)c2ccc(C3CCN([C@@H](C)c4cc5c(-c6cnc(N)c(F)c6)ccnc5n4C)CC3)cc2)CC1 (stereo partly shown) : 2.2

Reported DC50 of CN(C(=O)c1ccc(C2CCN(Cc3cc4c(-c5ccc(N)nc5)ccnc4n3C)CC2)cc1)c1ccc(C2CCN(Cc3ccc4c(c3)oc(=O)n4C3CCC(=O)NC3=O)CC2)cc1 (stereo not shown) : 0.1

Reported DC50 of C[C@H]1CN(Cc2cc3c(cc2F)n([C@H]2CCC(=O)NC2=O)c(=O)n3C)CCN1CC1CCN(C(=O)c2ccc(C3CCN([C@@H](C)c4cc5c(-c6ccc(N)nc6)ccnc5n4C)CC3)cc2)CC1 (single isomer, unassigned) : 0.2

Reported DC50 of Cn1c(CN2CCC(c3ccc(C(=O)N4CCC(CN5CCN(Cc6ccc7c(c6)n(C6CC6)c(=O)n7C6CCC(=O)NC6=O)CC5)CC4)cc3)CC2)cc2c(-c3ccc(N)nc3)ccnc21 (stereo not shown) : 5.4
